Attribute: inhibition
- experimental_details: M. tuberculosis H37Rv growth inhibitors, H37Rv strain (AID 1626);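 note: bacteria incubated seven days before Alamar blue readout; 0% = bacteria only wells and 100% = bacteria with antibiotic wells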
- assay_context: stronger effect = higher value, concentration not given here
The whole screen tested about 220,000 compounds, of which about 2,000 (0.91%) were called active. Another 2% or so got no clear call; they are omitted. A selection follows. Entries with a potency or affinity are not part of this list.
# output: bare number, implied unit %

structure: Cc1ccc(CSCCNC(=O)CN(c2cccc([N+](=O)[O-])c2)S(C)(=O)=O)cc1
test_value: 0.16
--
structure: Cc1ccc(N=Cc2ccc[nH]2)c(O)c1
test_value: -2.8
--
structure: COc1ccc(N2CCN(C(=O)C(C)(C)Oc3ccc(Cl)cc3)CC2)cc1
test_value: 10.8
--
structure: O=[N+]([O-])c1ccc(Sc2nnnn2-c2ccccc2)c(Cl)c1
test_value: -0.26
--
structure: O=[N+]([O-])c1ccc(Cl)cc1Sc1nc2ccccc2o1
test_value: -9.56

Q: Endpoint output: inhibition of Cc1ccc(C(=O)OCC(=O)NC(C)C)cc1S(=O)(=O)N1CCOCC1 . Value?
A: -1.79

====

- experimental_details: M. tuberculosis H37Rv growth inhibitors, H37Rv strain (AID 1626);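 note: bacteria incubated seven days before Alamar blue readout; 0% = bacteria only wells and 100% = bacteria with antibiotic wells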
- assay_context: stronger effect = higher value, concentration not given here
Screen size: about 220,000 compounds; about 2,000 (0.91%) were called active. Roughly 2% stayed inconclusive and do not appear here. These entries were drawn from the full list. Entries with a potency or affinity are not part of this list.
measured_metric: inhibition (%)
# output: bare number, implied unit %

molecule: COCC(C)N=C1NN=C(c2cc(C)n(Cc3ccccc3Cl)c2C)CS1 (stereo unspecified)
unit_spec: %
inhibition: 5.76
//
molecule: CCOC(=O)c1cc2c(ccn2-c2ccc(F)cc2)n1CC(=O)N1CCN(C(=O)c2ccco2)CC1
unit_spec: %
inhibition: -1.91
//
molecule: COc1ccc(C(=O)Nc2cc(Cl)ccc2OC(=O)c2ccc(OC)cc2)cc1
unit_spec: %
inhibition: -1.73
//
molecule: CC(=O)c1cccc(NC(=O)CC2S/C(=N/N=C/c3ccccc3)NC2=O)c1 (stereo unspecified)
unit_spec: %
inhibition: 5.53

Q: Endpoint output: inhibition of O=S1(=O)CCN(OCc2ccc(F)cc2Cl)CC1 . Value?
A: -5.47

Q: Now try COCCCN=C1NN=C(c2cc(C)n(-c3ccccc3)c2C)CS1 .
A: -2.89

Q: Now try Cc1cc(C2=NNC(=NC3CC3)SC2)c(C)n1-c1ccccc1F .
A: -4.49

Q: Now try O=C1NC(O)(c2ccccc2)Oc2ccccc21 (stereo unspecified) .
A: -6.9

Q: Now try O=C(COC(=O)c1ccccc1O)Nc1cc([N+](=O)[O-])ccc1Cl .
A: -5.14

Q: Now try COc1ccc(Br)cc1CNC(=O)C1CCN(S(=O)(=O)N2CCCC2)CC1 .
A: -4.95

Q: Now try COc1ccc(CNc2nc3nc(C)c(Cl)c(C)n3n2)cc1 .
A: -2.45

====

Attribute: inhibition
- experimental_details: M. tuberculosis H37Rv growth inhibitors, H37Rv strain (AID 1626);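 note: bacteria incubated seven days before Alamar blue readout; 0% = bacteria only wells and 100% = bacteria with antibiotic wells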
- assay_context: stronger effect = higher value, concentration not given here
About 2,000 (0.91%) of roughly 220,000 compounds were called active. About 2% were inconclusive and are not listed. Only a sample is shown. Entries with a potency or affinity are not part of this list.
# output: bare number, implied unit %

Example cases with answers are listed next.
compound: CCc1ccc(NC2CC(=O)N(CCc3ccc(OC)c(OC)c3)C2=O)cc1 (stereo unspecified)
inhibition, %: 6.46

compound: COc1ccccc1NC(=O)N1CCN(c2ccc(F)cc2)CC1
inhibition, %: 4.69

compound: Cc1ccc(Cl)cc1NC(=O)COC(=O)c1ccc(N2CCCC2)c([N+](=O)[O-])c1
inhibition, %: -3.66

compound: NS(=O)(=O)c1ccc(CCNCc2cccs2)cc1
inhibition, %: 1.78

compound: Cc1[nH]n(C2=NCCS2)c(=O)c1N=Nc1ccccc1
inhibition, %: 2.69

Alright, here's another compound for you.
Q: Endpoint output: inhibition of Cc1c(C(=O)N2CCN(C)CC2)oc2ccc(S(=O)(=O)N3CCOCC3)cc12 . Value?
A: -4.68
